Test: Human HepG2 cell viability assay in 384 well format
Type: toxicity, cell-based
Parameters: dose 125 nL, time 70.5 hour; concentration not given beside the values
Conditions: HepG2 cells, read-out: Inhibition
reported_metric: cytotoxicity at 70.5 h (%)
State just the number; it will be interpreted in %.

# get_value(readout='cytotoxicity at 70.5 h', item= Cc1cc(C)n(CC2CCCN2C(=O)c2cccc3c2OCCO3)n1 (configuration not stated) )
-3.57

How about Cc1nn(-c2ccc(C(=O)O)cc2)c2c1C(c1ccsc1)SCC(=O)N2 (configuration not stated) ?
-1.43

Thanks! And `CCOCc1nc2c(c(NCc3cc(C)on3)n1)CCN(C(C)=O)CC2` ?
-7.96

Then this molecule: `CN(C)[C@@H]1C[C@@H](CO)N(C(=O)Nc2cccc(F)c2F)C1`
19.1

// repeat for `CC(C)c1nc(CSc2nnc(-c3cccs3)n2CC(N)=O)no1` and report
-9.43

Ok, now `Cc1cccc(NC(=O)c2ccc(-n3cncn3)nn2)n1`
-1.44

Also check CC(C)c1nccn1C1CCCN(C(=O)CCc2cnn(C)c2)C1 (configuration not stated)
-10.7

Try O=C1CCCc2occ(C(=O)N3CCCC4(CCNC4)C3)c21 (configuration not stated) next.
-7.04

Moving on to Cc1nn(C)c(C)c1NC(=O)CN1CCOC(Cn2cccn2)C1 (configuration not stated)
-1.52

Field entry: `CCS(=O)(=O)N1CCc2c(cnc(-c3cccnc3)c2C(=O)O)C1`
10.1

How about CCCc1n[nH]c(C2CN(C(=O)CCn3ccccc3=O)CCO2)n1 (configuration not stated) ?
-2.27

Ok, now O=C1CC(C(=O)N2CCc3sccc3C2)CN1Cc1cccnc1 (configuration not stated)
2.13

Repeat with Cc1cc(-c2nccn2CCN2CCCCC2CO)oc1C (configuration not stated)
-5.85

Thanks! And `CCOC(=O)NCCC(=O)NC(C)(C)c1ccc2c(c1)OCCO2` ?
-6.26

Next molecule: Cc1c(C(C)NC(=O)Nc2ccccc2F)cnn1C (configuration not stated)
-5.46

Request: Cc1noc(C)c1CN(Cc1ccccc1)C(C)CN1CCOCC1 (configuration not stated)
-9.44

How about this molecule: c1cncc(COCC2CN(Cc3ccco3)Cc3ccnn3C2)c1 (configuration not stated)
0.213

Repeat with Cc1cc(C)nc(Nc2cccc(C3CCCN(S(C)(=O)=O)C3)n2)n1 (configuration not stated)
46.8

Thanks! And COCCc1noc(CN2CCCC2c2c(C)nn(C)c2OC)n1 (configuration not stated) ?
-3.49

// query: `CCC[C@@H]1CN(Cc2nnc(-c3cccnc3)o2)C[C@H]1NC(C)=O`
-7.21

Same for `CCOCCN1CCC(c2cnccn2)CC1`
21.8

Now consider `COc1ccc2c(c1)CCN(CCC(=O)O)CC2` and answer again.
12.3

One more molecule: CC(=O)NCC(=O)N1CCC2(CC1)NC(=O)CC2c1cccnc1 (configuration not stated)
-1.28

Here is the next molecule: `CN1C[C@H](COCC2CC2)[C@H]2CCN(Cc3ccco3)CC[C@H]2C1=O`
7.68

`COCCN(CC(C)C)C(=O)c1cccc(Nc2cnccn2)c1` ?
-13.9

COc1cc(NCC(c2ccccn2)N(C)C)ncn1 (configuration not stated) ?
-5.7

Also need `O=C(Nc1ccccc1CCc1ccccn1)NC1CCOCC1` , thanks.
0.573

Try this molecule too: `Cn1c(CS(=O)(=O)c2ccc(Cl)cc2)cc(=O)n(C)c1=O`
-4.14

One more molecule: `Cc1ccc(-c2nc(CN3CCn4c(C)nnc4C3)cs2)o1`
-7.11

Next molecule up: CS(=O)(=O)N1CCCCCC1C1CCN(Cc2nc(C3CC3)no2)CC1 (configuration not stated)
5.88

Ok, now `CC(C)Cn1ccc2c(NC(=O)c3n[nH]c4c3CCC4)cccc21`
5.24

Then what about the molecule `Cn1ccnc1CN1C[C@@H](CN2CCC(CO)CC2)[C@@H](CO)C1` ?
-7.99

Cool, now CCOCC1CN(Cc2ccc(F)cc2)Cc2nn(CC3CC3)cc21 (configuration not stated)
-17.2

What do you get for `CCc1noc(C)c1C(=O)NCc1ccccn1` ?
-0.245

Do the same for `O=C(O)c1cc(S(=O)(=O)Nc2ccccc2)cc2c1OCCO2` please
4.5

Please do the same for O=C(O)C1CN(c2cccc(Cl)c2)CCO1 (configuration not stated) as well.
-4.2

// same read-out, input: `CCCNC(=O)N1CCC(c2nnc(Cn3cccn3)n2C2CC2)CC1`
-10.5

Proceed to `CCC/C=C/c1ccc(CN2CCCC2)cn1`
48.4

Fc1ccc(CN2CCCC2c2cncc(-n3ccnc3)n2)cc1 (configuration not stated) ?
-1.28

Field entry: `CCc1cnc(N2CCC3(CC2)CN(c2cccnc2)C(=O)CO3)nc1`
23.8

And for `CN(CC1=CCCN(CCc2ccccn2)C1)C(=O)c1ccco1` ?
-9.19

Queued: `COc1ccnc(N2CCN(C(=O)CCc3nccs3)CC2)n1`
-10.9

Data provenance: ChEMBL document CHEMBL3507680
